# self-splicing fitness (ln) listing for each entry below
- method: self-splicing fitness, log relative to wild type (ln ratio); higher = more splicing; Tetrahymena group I intron in knt gene, E. coli kanamycin selection, DiMSum; sequences stand for … in CUCUCU…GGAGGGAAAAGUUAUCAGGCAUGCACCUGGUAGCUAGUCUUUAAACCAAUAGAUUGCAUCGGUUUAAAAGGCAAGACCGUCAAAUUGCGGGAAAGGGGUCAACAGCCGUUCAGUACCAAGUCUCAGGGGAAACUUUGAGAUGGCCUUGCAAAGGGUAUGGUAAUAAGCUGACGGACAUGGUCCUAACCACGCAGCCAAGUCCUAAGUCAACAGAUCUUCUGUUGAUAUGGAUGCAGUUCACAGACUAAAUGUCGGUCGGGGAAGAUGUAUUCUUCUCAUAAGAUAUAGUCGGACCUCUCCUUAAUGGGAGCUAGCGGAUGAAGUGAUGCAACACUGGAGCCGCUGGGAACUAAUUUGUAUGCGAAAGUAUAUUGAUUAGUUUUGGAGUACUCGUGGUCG;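 note: selection with 25 µg/mL kanamycin versus none on LB agar overnight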
- experimental.setup: 37 °C

# macromolecule.sequence, self-splicing fitness (ln)
data = [
    ("UCUUAGCAAUAUUACGCAGG", -1.75),
    ("AGGCAGCAAUAUUACGAAGA", -1.12),
    ("UGCAAGCAAUAUUACGGACA", -0.0695),
    ("CAAAAGCAAUAUUACGCCGG", -0.104),
    ("CAACAGCAAUAUUACGAUCA", -1.33),
]

Query string: Could you share which self-splicing fitness (ln) value was measured for GGAGAGCAAUAUUACGUGCC ?
Result string: -2.38

Query string: Could you share which self-splicing fitness (ln) value was measured for UAAUAGCAAUAUUACGGCGC ?
Result string: -2.42
